In this section we review reported Therapeutic index (ratio of LD50 to ED50) values for a set of molecules.
# System: male mice of the ddy strain
# experiment: 50% lethal dose (LD50) by Up and Down Method in mice, and therapeutic index
# Assay type: in vivo
# measurement.context: LD50/ED50
Number only, please.

Some entries whose results are on file:
molecule	result
O=C(Nc1c(Cl)cccc1Cl)[C@@H]1CCN2CCC[C@@H]12 (relative stereo)	6.92
Cc1cccc(C)c1NC(=O)[C@@H]1CCN2CCC[C@@H]12 (relative stereo)	15.4
O=C(Nc1c(Br)cccc1Br)[C@@H]1CCN2CCC[C@@H]12 (relative stereo)	10.88

Now examine the next entry.
Q: Notebook entry, male mice of the ddy strain assay: Therapeutic index (ratio of LD50 to ED50) of CCc1cccc(CC)c1NC(=O)[C@@H]1CCN2CCC[C@@H]12 (relative stereo) = ?
Ans: 6.24
